- Test system: SN12C
- Run description: NCI tumour cell line growth inhibition, 48 h
Calls of active or inactive are those of the source. Cut-off read from the data, not from the text of the source: active = GI50 up to about 1.1 µM and inactive = higher.
Answer with one of the outcomes active, inactive

Worked cases, answers included:
Molecule	Assigned class
CCCCCCCC/C=C\CCCCCCCCCCCC(=O)O	inactive
O=C(O)C1CCCN1Cc1ccc2c(c1)OCO2 (stereo not given)	inactive
O=c1[nH]c(=O)n(C2OC(CO)C(O)C2O)cc1OCCc1ccccc1 (stereo not given)	inactive

Exercise: Could you please tell me the result logged for `Nc1nc2c(ncn2Cc2ccc(CO)cc2)c(=O)[nH]1` in this assay?
Solution: inactive

Exercise: Could you please tell me the result logged for COc1cccc2c1C(=O)c1c(O)c3c(c(O)c1C2=O)C[C@@](O)(C(C)=O)C[C@@H]3OC1OC(C)C(O)C(N)C1Br (stereo not given in full) in this assay?
Solution: active

Exercise: Could you please tell me the result logged for `Cc1c2cnccc2c(C)c2c1c1ccccc1n2CCCCCCCl` in this assay?
Solution: inactive

Exercise: Could you please tell me the result logged for COc1cc(S(=O)(=O)Nc2ccc(-c3csc(N4C(=O)CSC4c4cccc(Oc5ccccc5)c4)n3)cc2)ccc1Cl (stereo not given) in this assay?
Solution: inactive

Exercise: Could you please tell me the result logged for CN1CC2(CCCCC2)C(O)C12C=CCCC2 (stereo not given) in this assay?
Solution: inactive

Exercise: Could you please tell me the result logged for `O=c1[nH]cc(/N=C/c2cc(Cl)cc(Cl)c2O)c(=O)[nH]1` in this assay?
Solution: inactive

Exercise: Could you please tell me the result logged for `O=C(COc1ccc(OCC(=O)N2C(=O)CC(=O)N(c3ccccc3)C2=S)cc1)N1C(=O)CC(=O)N(c2ccccc2)C1=S` in this assay?
Solution: inactive

---

- Tested on: DMS-273
- Run description: NCI tumour cell line growth inhibition, 48 h
Active and inactive are the calls of the source. No stated cut-off is given here; in the data, active = GI50 up to about 1.1 µM and inactive = higher.
Attribute measured: GI50

Consider the worked cases shown below.
Compound	GI50
COc1cc(OC)c2c(=O)c3cccc([N+](=O)[O-])c3n(C)c2c1	60.3 µM (inactive)
CN(O)C(=S)c1ccccc1	0.893 µM (active)
CCOC(=O)NC(=O)c1cn(CCOC(=O)NCCCCCCNC(=O)OCCn2cc(C(=O)NC(=O)OCC)c(=O)[nH]c2=O)c(=O)[nH]c1=O	> 100 µM (inactive)
S=C1SCC2CCCN12 (stereo unspecified)	> 100 µM (inactive)
COc1cc(C(C)O)c[n+](Cc2ccccc2)c1 (stereo unspecified)	> 100 µM (inactive)

Exercise: State, in one line, measured GI50 of CN1C(=O)C2C=CC1C1CCC2N(C)C1=O (stereo unspecified)
Solution: > 100 µM (inactive)

Exercise: State, in one line, measured GI50 of `COc1ccc2c(c1)c(Cc1c(C)n(C)c3ccc(OC)cc13)c(C)n2C`
Solution: > 100 µM (inactive)

Exercise: State, in one line, measured GI50 of `CC(C)OC(=O)Nc1c([N+](=O)[O-])cc(C(F)(F)F)cc1[N+](=O)[O-]`
Solution: > 100 µM (inactive)

Exercise: State, in one line, measured GI50 of CCCCCC/C=C1\CCC(CN2CCOCC2)C1=O (stereo unspecified)
Solution: 15.9 µM (inactive)

Exercise: State, in one line, measured GI50 of `O=C(O/N=C1/CCC/C1=C\c1ccccc1)c1ccc(Cl)cc1`
Solution: > 76.9 µM (inactive)

Exercise: State, in one line, measured GI50 of `CCNc1nnc(-c2nsc3ccccc23)s1`
Solution: 27.7 µM (inactive)
